Where do these numbers come from? They come from patent US11248254B2.

- assay system: ternary complex of primed template nucleic acid, Bst DNA polymerase large fragment and cognate nucleotide (Geobacillus stearothermophilus)
- Construct: 200 nM unlabeled Bst DNA polymerase large fragment
- assay summary: Biolayer interferometry: formation and retention of ternary complexes with different non-catalytic metal ions
- Type: binding
- details: wash without polymerase, 10 μM correct dNTP, 100 μM incorrect dNTP, 2 mM test metal ion, 300 s (FIG. 2)
- Description: A FORTEBIO® (Menlo Park, Calif.) Octet instrument employing biolayer interferometry to measure binding reactions at the surface of a fiber optic tip was used in a multiwell plate format to assess formation and stability of ternary complexes in the presence of different non-catalytic metal ions. […] Retention of the ternary complex was measured over the course of 300 seconds. […]
quantity kind: ternary complex decay / stability following washing

[Na+].[Na+].[Na+].[O]=[V]([O-])([O-])[O-] : rapid decay
O=S(=O)([O-])[O-].[Cu+2] : rapid decay

====

- assay system: ternary complex of primed template nucleic acid, Bst DNA polymerase large fragment and cognate nucleotide (Geobacillus stearothermophilus, UniProt P52026)
- Construct: 200 nM unlabeled Bst DNA polymerase large fragment
- Sequence (P52026 289-876 limits assumed, one chain of several): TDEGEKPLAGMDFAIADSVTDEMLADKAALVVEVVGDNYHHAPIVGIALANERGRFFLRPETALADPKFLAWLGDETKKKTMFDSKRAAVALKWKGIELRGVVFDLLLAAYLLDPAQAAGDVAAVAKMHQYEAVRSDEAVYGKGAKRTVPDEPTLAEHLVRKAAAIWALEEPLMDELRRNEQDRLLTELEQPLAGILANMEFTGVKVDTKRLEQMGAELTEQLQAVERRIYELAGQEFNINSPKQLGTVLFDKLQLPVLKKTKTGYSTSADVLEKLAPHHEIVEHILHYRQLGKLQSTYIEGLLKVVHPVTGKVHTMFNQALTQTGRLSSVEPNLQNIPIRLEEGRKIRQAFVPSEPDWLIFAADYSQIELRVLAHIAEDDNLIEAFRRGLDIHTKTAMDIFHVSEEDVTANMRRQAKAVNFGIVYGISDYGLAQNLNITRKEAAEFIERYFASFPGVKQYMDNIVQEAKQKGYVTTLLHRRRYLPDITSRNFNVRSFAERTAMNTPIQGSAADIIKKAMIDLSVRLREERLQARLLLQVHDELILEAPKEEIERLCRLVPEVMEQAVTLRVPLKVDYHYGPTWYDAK
- assay summary: Biolayer interferometry: formation and retention of ternary complexes with different non-catalytic metal ions
- Assay type: binding
- details: 2 mM test metal ion, 100 μM correct nucleotide, 200 nM Bst polymerase, 60 s binding (FIG. 2)
- Experimental: A FORTEBIO® (Menlo Park, Calif.) Octet instrument employing biolayer interferometry to measure binding reactions at the surface of a fiber optic tip was used in a multiwell plate format to assess formation and stability of ternary complexes in the presence of different non-catalytic metal ions. […] Retention of the ternary complex was measured over the course of 300 seconds. […]
quantity kind: binding signal when ternary complexes formed on primed template nucleic acid

[Cl][Eu]([Cl])[Cl] [Eu^3+, EuCl3] : high binding signals
[Cl-].[Cl-].[Sr+2] [Sr^2+, SrCl2] : high binding signals

====

- Tested on: tested polymerases with primed template nucleic acid
- assay summary: Discrimination between correct and incorrect nucleotides at higher metal cation concentration
- Type: binding
- details: cation greater than about 5 mM; 150 mM to 300 mM monovalent metal cations
quantity kind: ability of polymerase to discriminate between correct and incorrect nucleotides

[Ni+2] : This was not the case
[Cl-].[Cl-].[Sr+2] : This was not the case
